Target: T1, EsCas13d, nuclease-dead (Eubacterium siraeum, UniProt B0MS50, R295A;H300A;R849A;H854A)
T1 sequence: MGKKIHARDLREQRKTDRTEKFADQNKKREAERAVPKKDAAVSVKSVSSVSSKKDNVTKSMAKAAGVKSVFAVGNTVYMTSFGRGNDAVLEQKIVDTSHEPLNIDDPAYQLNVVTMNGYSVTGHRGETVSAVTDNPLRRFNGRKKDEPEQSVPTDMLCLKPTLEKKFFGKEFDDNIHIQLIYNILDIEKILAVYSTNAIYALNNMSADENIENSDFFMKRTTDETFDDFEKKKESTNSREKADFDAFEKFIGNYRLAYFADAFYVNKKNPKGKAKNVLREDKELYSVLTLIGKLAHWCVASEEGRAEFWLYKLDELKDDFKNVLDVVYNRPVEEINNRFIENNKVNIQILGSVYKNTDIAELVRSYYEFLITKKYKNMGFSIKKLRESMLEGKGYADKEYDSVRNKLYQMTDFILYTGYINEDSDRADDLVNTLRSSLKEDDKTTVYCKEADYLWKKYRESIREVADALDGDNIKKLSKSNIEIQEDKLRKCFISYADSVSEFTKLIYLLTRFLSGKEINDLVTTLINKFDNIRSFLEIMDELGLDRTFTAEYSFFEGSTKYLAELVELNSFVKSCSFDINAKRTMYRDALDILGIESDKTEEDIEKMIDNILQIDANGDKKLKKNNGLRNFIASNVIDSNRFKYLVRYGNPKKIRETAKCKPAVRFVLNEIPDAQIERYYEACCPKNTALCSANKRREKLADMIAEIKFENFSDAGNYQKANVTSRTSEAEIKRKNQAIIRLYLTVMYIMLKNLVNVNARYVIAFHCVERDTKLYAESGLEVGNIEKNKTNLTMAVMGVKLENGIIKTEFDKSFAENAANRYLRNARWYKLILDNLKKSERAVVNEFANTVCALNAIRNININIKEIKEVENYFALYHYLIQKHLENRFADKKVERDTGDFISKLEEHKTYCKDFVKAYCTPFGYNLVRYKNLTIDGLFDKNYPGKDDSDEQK
Assay: crRNA (strand 1, pre-loaded); Mg2+; 40 mM Tris-HCl pH 7.5, 150 mM NaCl, 6 mM MgCl2, 1 mM DTT, 0.1% Tween-20, 0.2 mg/ml BSA; 25 C; 10 min per concentration, then washed
Conditions: tags: His6-TwinStrep-SUMO cleaved; N-terminal SNAP kept (SNAP-Surface 488); label: 3' end held by stalled T7 RNA polymerase
observation.type: Kd (nM)
Answer format: numeric, nM implied, no suffix.

Solved cases below.
binder	units.text	meas.value
target 3 insA 3' of 14 (mixed) RNA 1: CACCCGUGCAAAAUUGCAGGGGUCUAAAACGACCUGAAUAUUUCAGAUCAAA RNA 2: GGGAAUGGAUCCACAUCUACGAAUUCGUUUUUGAUCUGAAAAUAUUCAGGUCUGCAGAUCGGAAGAGCACACGU	nM	60
target 1 insU 3' of 13,insC 3' of 11 (mixed) RNA 1: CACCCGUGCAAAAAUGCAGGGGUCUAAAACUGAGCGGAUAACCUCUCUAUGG RNA 2: GGGAAUGGAUCCACAUCUACGAAUUCGUACCAUAGAGAGUGUCUAUCCGCUCACCGAGAUCGGAAGAGCACACGU	nM	29
target 1 C2G,C6U (mixed) RNA 1: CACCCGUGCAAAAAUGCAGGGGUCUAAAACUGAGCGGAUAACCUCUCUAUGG RNA 2: GGGAAUGGAUCCACAUCUACGAAUUCGUACCAUAGAGAGGUUAUCUGCUGACCGAGAUCGGAAGAGCACACGU	nM	4.97

Need Kd, item target 1 insC 3' of 11,insC 3' of 11 (mixed) RNA 1: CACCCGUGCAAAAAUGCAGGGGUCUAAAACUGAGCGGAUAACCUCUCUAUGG RNA 2: GGGAAUGGAUCCACAUCUACGAAUUCGUACCAUAGAGAGGUCCUAUCCGCUCACCGAGAUCGGAAGAGCACACGU 35

Reference source for all entries: paper PMC10786891
